target: T1, EGFR Fc (human, UniProt P00533 25-645); experiment: blocking ELISA, EGFR-hFc + VHH at 200 nM on coated EGF-mFc
T1 construct: also called EGFR-hFc; recombinant human EGFR-Fc
readout-type: OD450
One number for each entry.

These solved cases illustrate the format of a correct answer.
INSERT INTO assay_data (binder, readout_type, quantitative_result) VALUES
  ('pgEG-SX40 (VHH, not shown: small tags and cut ends) VHH: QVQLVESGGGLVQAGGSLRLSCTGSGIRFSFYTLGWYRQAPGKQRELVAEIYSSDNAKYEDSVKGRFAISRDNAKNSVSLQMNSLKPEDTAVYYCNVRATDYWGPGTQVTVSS', 'OD450', 0.147),
  ('pgEG-SX57 (VHH, not shown: small tags and cut ends) VHH: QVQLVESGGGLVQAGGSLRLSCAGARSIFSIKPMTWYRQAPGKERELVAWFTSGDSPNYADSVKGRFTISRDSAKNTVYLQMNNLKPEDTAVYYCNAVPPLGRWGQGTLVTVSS', 'OD450', 0.158),
  ('pgEG-SX22 (VHH, not shown: small tags and cut ends) VHH: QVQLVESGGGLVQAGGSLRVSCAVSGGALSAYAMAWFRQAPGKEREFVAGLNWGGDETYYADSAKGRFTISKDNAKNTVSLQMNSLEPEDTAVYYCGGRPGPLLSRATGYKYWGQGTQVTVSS', 'OD450', 0.903);

Next:
# lookup: OD450 of pgEG5 (VHH, not shown: small tags and cut ends) VHH: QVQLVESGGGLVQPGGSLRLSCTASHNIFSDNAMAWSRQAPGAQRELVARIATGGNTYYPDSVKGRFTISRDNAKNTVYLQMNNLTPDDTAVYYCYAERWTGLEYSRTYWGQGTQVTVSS
1.2
